Biological target: Angiotensin II-receptor (Rattus norvegicus)
Sequence (P25095 whole entry): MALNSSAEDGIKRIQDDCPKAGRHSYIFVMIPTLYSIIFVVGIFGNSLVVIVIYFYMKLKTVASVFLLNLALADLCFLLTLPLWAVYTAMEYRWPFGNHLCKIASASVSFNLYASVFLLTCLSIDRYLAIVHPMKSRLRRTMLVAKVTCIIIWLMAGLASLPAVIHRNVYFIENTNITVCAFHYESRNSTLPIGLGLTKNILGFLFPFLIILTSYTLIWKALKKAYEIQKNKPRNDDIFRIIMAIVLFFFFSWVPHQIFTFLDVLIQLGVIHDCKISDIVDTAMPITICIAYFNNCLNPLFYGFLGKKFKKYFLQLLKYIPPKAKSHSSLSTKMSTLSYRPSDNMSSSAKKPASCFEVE
Test readout: IC50 (nM)
Respond numerically; units are nM and should not be typed.

query: Give the measured IC50 of CCc1nc2c(C)cc(C)nc2n1Cc1ccc2c(c1)nc(-c1ccccc1)n2CC(=O)O .
result: 120
